The entries below are paired with their reported IC50.
biological target: SARS-CoV-2 3CL protease (Severe acute respiratory syndrome coronavirus 2, UniProt P0DTD1); experiment: Inhibitory activity test against SARS-CoV-2 3CL proteases; format: biochemical; settings: read-out: IC50 (50% SARS-CoV-2 3CL protease inhibitory concentration)
measurementLabel: IC50

>>> print(df.to_string())
                                   smilesstr   valueobserved
 0  COc1cc(-c2cc3nc(C(F)F)[nH]c3cc2Cl)cc2c1c(=O)n(Cc1ncn(C)n1)c(=O)n2Cc1cc(F)c(F)c(F)c1        < 100 nM
 1  Cn1cnc(Cn2c(=O)c3c4nccnc4c(-c4cc(C#N)ccc4Cl)cc3n(Cc3cc(F)c(F)c(Cl)c3)c2=O)n1        < 100 nM
 2  COc1cc(-c2cc(NS(C)(=O)=O)ccc2Cl)cc2c1c(=O)n(Cc1ncn(C)n1)c(=O)n2Cc1cc(F)c(F)c(F)c1        < 100 nM
 3  CNc1cc2c(c(OC)n1)c(=O)n(-c1cnc3cc(F)ccn13)c(=O)n2-c1ccc(F)c(Cl)c1        < 100 nM
 4  COc1nc(C2=CCOCC2)cc2c1c(=O)n(-c1cnc3cc(F)ccn13)c(=O)n2-c1ccc(F)c(Cl)c1        < 100 nM
 5  COc1nc(N2CC[C@@H](C#N)C2)cc2c1c(=O)n(-c1cncc(F)c1)c(=O)n2-c1ccc(F)c(F)c1          6.8 nM
 6  COc1nc(NC(C)C)cc2c1c(=O)n(-c1cnc3cc(F)ccn13)c(=O)n2-c1ccc(F)c(Cl)c1          8.5 nM
 7  [2H]C([2H])([2H])O[C@@H]1CCN(c2cc3c(c(OC)n2)c(=O)n(-c2cncc(OCF)c2)c(=O)n3-c2ccc(F)c(Cl)c2)C1        < 100 nM
 8  [2H]C([2H])([2H])O[C@@H]1CCN(c2cc3c(c(OC)n2)c(=O)n(-c2cncc(C#N)c2)c(=O)n3-c2ccc(F)c(F)c2)C1        < 100 nM
 9  COc1c(-c2cc(C#N)ccc2Cl)cc2c(c(=O)n(Cc3ncn(C)n3)c(=O)n2Cc2cc(F)c(F)c(F)c2)[n+]1[O-]  100 to 1000 nM
10  COc1nc(N2CC[C@@H](C(=O)N(C)C)C2)cc2c1c(=O)n(-c1cnc3cc(F)ccn13)c(=O)n2-c1ccc(F)c(Cl)c1        < 100 nM
11  Cn1cnc(Cn2c(=O)c3c(cc(-c4cc(C#N)ccc4Cl)c[n+]3[O-])n(Cc3cc(F)c(F)c(F)c3)c2=O)n1  100 to 1000 nM
12  COc1nc(N2CC[C@@H](CO)C2)cc2c1c(=O)n(-c1cncc(Cl)c1)c(=O)n2-c1ccc(F)c(Cl)c1        < 100 nM
